tested on: HepG2; test: Cytotoxicity against human HepG2 cells after 48 hrs by MTT assay; assay type: functional, cell-based; details: HepG2, 48 h
Field 'label' (enum: Criterion met / Criterion not met). Set to Criterion met when IC50 is strictly under 40 µM; else Criterion not met.

IN: Determine if CCOP(=O)(OCC)C(Nc1ccccc1)c1cc2cc(OC)ccc2[nH]c1=O (stereo unspecified) shows IC50 strictly lower than 40 µM.
OUT: Criterion not met

IN: Consider CCOP(=O)(OCC)C(Nc1ccc(C)cc1)c1cc2cc(OC)ccc2[nH]c1=O (stereo unspecified) . Does its IC50 lie strictly below 40 µM?
OUT: Criterion not met

IN: Would you kindly verify if IC50 of CCOP(=O)(OCC)C(Nc1ccc(C)cc1)c1cc2cc(C)ccc2[nH]c1=O (stereo unspecified) is strictly less than 40 µM?
OUT: Criterion met

Further cases:
IN: Does the reported IC50 of "COc1ccc2[nH]c(=O)c(C=O)cc2c1" stay below 40 µM?
OUT: Criterion not met

IN: Input "CCOP(=O)(Cc1ccc(/N=C/c2cc3cc(C)ccc3[nH]c2=O)cc1)OCC" ; condition: IC50 strictly below 40 µM. Does it hold?
OUT: Criterion met

IN: Item "O=Cc1cc2ccccc2[nH]c1=O" : IC50 beneath 40 µM, strictly?
OUT: Criterion not met

IN: # strict comparison: is reported IC50 < 40 µM? input = CCOP(=O)(OCC)C(Nc1ccc(C(F)(F)F)cc1)c1cc2cc3c(cc2[nH]c1=O)OCO3 (stereo unspecified)
OUT: Criterion not met

IN: Please let me know if CCCCNC(c1cc2cc(OC)ccc2[nH]c1=O)P(=O)(OCC)OCC (stereo unspecified) shows IC50 below 40 µM.
OUT: Criterion not met

IN: Please let me know if CCOP(=O)(OCC)C(Nc1ccc(C)cc1)c1cc2ccccc2[nH]c1=O (stereo unspecified) shows IC50 below 40 µM.
OUT: Criterion not met

IN: IC50 under 40 µM? Item: CCOP(=O)(OCC)C(Nc1ccc([N+](=O)[O-])cc1)c1cc2ccccc2[nH]c1=O (stereo unspecified)
OUT: Criterion not met

---

test system: SK-OV-3; test: Cytotoxicity against human SKOV3 cells after 48 hrs by MTT assay; type: functional, cell-based; details: SK-OV-3, 48 h
Readings of IC50 for the listed compounds

Answered examples (2):
IN: Look up IC50 of CCOP(=O)(OCC)C(Nc1ccccc1)c1cc2cc3c(cc2[nH]c1=O)OCO3 (stereo unspecified) and report it.
OUT: 65 µM

IN: // fetch IC50 given entry "COc1ccc2[nH]c(=O)c(C=O)cc2c1"
OUT: > 200 µM

---
IN: Quote IC50 reported for CCOP(=O)(OCC)C(Nc1ccc(C)cc1)c1cc2cc(OC)ccc2[nH]c1=O (stereo unspecified) please.
OUT: 60 µM

IN: Item CCOP(=O)(OCC)C(Nc1ccc(C(F)(F)F)cc1)c1cc2ccccc2[nH]c1=O (stereo unspecified) : provide IC50
OUT: 25.8 µM

IN: # return recorded IC50 for entry CCOP(=O)(OCC)C(Nc1ccc(F)cc1)c1cc2cc(OC)ccc2[nH]c1=O (stereo unspecified)
OUT: 270 µM

IN: Identify measured IC50 associated with CCCCNC(c1cc2cc(C)ccc2[nH]c1=O)P(=O)(OCC)OCC (stereo unspecified)
OUT: 130 µM

IN: Read off the recorded IC50 for CCOP(=O)(OCC)C(Nc1ccc(C(F)(F)F)cc1)c1cc2cc(OC)ccc2[nH]c1=O (stereo unspecified)
OUT: 102 µM

IN: Kindly indicate its recorded IC50. Item: CCOP(=O)(OCC)C(Nc1ccc([N+](=O)[O-])cc1)c1cc2ccccc2[nH]c1=O (stereo unspecified)
OUT: 30 µM

IN: Specify measured IC50 for CCOP(=O)(OCC)C(Nc1ccc(F)cc1)c1cc2cc(C)ccc2[nH]c1=O (stereo unspecified) .
OUT: 30.3 µM

IN: Specify reported IC50 for the compound shown: CCOP(=O)(OCC)C(Nc1ccc([N+](=O)[O-])cc1)c1cc2cc(C)ccc2[nH]c1=O (stereo unspecified)
OUT: > 200 µM

IN: Provide only the value of recorded IC50 for "O=Cc1cc2cc3c(cc2[nH]c1=O)OCO3"
OUT: > 200 µM

---

test system: SK-OV-3; experiment: Cytotoxicity against human SKOV3 cells after 48 hrs by MTT assay; assay type: functional, cell-based; conditions: SK-OV-3, 48 h
Readout name: IC50

Use these answered entries as a reference point.
IN: Determine from records and report IC50 for "O=Cc1cc2ccccc2[nH]c1=O"
OUT: > 200 µM

IN: Name the recorded IC50 of the item CCOP(=O)(OCC)C(Nc1cccc(C)c1)c1cc2cc3c(cc2[nH]c1=O)OCO3 (stereo not drawn) in your answer.
OUT: > 100 µM

Turning now to a further molecule:
IN: Given "Cc1ccc2[nH]c(=O)c(C=O)cc2c1" , respond with its IC50.
OUT: > 200 µM

---

Reported pIC50 values for a set of compounds
system: HepG2; assay: Cytotoxicity against human HepG2 cells after 48 hrs by MTT assay; type: functional, cell-based; settings: HepG2, 48 h
The quantity pIC50 is defined as the negative base-10 logarithm of the molar concentration.

IN: For the compound CCOP(=O)(OCC)C(Nc1ccc(C(F)(F)F)cc1)c1cc2cc(OC)ccc2[nH]c1=O (stereo unspecified) , give its reported pIC50.
OUT: 4.40

IN: Give me measured pIC50, please, for this compound: CCOP(=O)(OCC)C(Nc1ccc(F)cc1)c1cc2cc3c(cc2[nH]c1=O)OCO3 (stereo unspecified)
OUT: 4.42

IN: Fill in reported pIC50 for this entry: CCOP(=O)(OCC)C(Nc1ccc(F)cc1)c1cc2cc(OC)ccc2[nH]c1=O (stereo unspecified)
OUT: 4.23

IN: Entry CCOP(=O)(OCC)C(Nc1ccccc1)c1cc2ccccc2[nH]c1=O (stereo unspecified) needs its pIC50 filled in; supply it.
OUT: 4.33

IN: Read off the recorded pIC50 for CCOP(=O)(OCC)C(Nc1ccc([N+](=O)[O-])cc1)c1cc2cc(C)ccc2[nH]c1=O (stereo unspecified)
OUT: 4.45

---

system: HepG2; experiment: Cytotoxicity against human HepG2 cells after 48 hrs by MTT assay; format: functional, cell-based; conditions: HepG2, 48 h
Please assign label 0 whenever IC50 is at or above 40 µM, and label 1 whenever it is below.

IN: Strictly below 40 µM: is that where IC50 of "Cc1ccc2[nH]c(=O)c(C=O)cc2c1" sits?
OUT: label 0

IN: Lab log: compare recorded IC50 with 40 µM; is it strictly lower for CCOP(=O)(OCC)C(Nc1cccc(C)c1)c1cc2cc(C)ccc2[nH]c1=O (stereo unspecified) ?
OUT: label 0

IN: Input "CCOP(=O)(Cc1ccc(/N=C/c2cc3ccccc3[nH]c2=O)cc1)OCC" ; condition: IC50 strictly below 40 µM. Does it hold?
OUT: label 1

IN: # TODO verify IC50 < 40 µM strictly for this molecule: CCOP(=O)(OCC)C(Nc1ccc(C)cc1)c1cc2cc3c(cc2[nH]c1=O)OCO3 (stereo unspecified)
OUT: label 0

IN: Please check: IC50 for CCOP(=O)(OCC)C(Nc1ccccc1)c1cc2cc3c(cc2[nH]c1=O)OCO3 (stereo unspecified) , strictly under 40 µM or not?
OUT: label 0

Further cases:
IN: Find out if reported IC50 for CCOP(=O)(OCC)C(Nc1ccc([N+](=O)[O-])cc1)c1cc2cc(OC)ccc2[nH]c1=O (stereo unspecified) is less than 40 µM
OUT: label 1

IN: Item "CCOP(=O)(Cc1ccc(/N=C/c2cc3cc4c(cc3[nH]c2=O)OCO4)cc1)OCC" : IC50 beneath 40 µM, strictly?
OUT: label 1

IN: Input "CCOP(=O)(Cc1ccc(/N=C/c2cc3cc(OC)ccc3[nH]c2=O)cc1)OCC" ; condition: IC50 strictly below 40 µM. Does it hold?
OUT: label 1

---

test system: HepG2; experiment: Cytotoxicity against human HepG2 cells after 48 hrs by MTT assay; format: functional, cell-based; details: HepG2, 48 h
Readout name: pIC50
// returns pIC50 (minus log10 of molar concentration), number only

As a guide, the following entries are already answered.
IN: Provide measured pIC50 value, entry: CCOP(=O)(OCC)C(Nc1ccccc1)c1cc2cc(C)ccc2[nH]c1=O (stereo not drawn)
OUT: 4.40

IN: Fill in pIC50 for record CCOP(=O)(OCC)C(Nc1ccc(C(F)(F)F)cc1)c1cc2ccccc2[nH]c1=O (stereo not drawn)
OUT: 4.41

Okay, now this compound:
IN: State its pIC50: CCCCNC(c1cc2cc(C)ccc2[nH]c1=O)P(=O)(OCC)OCC (stereo not drawn)
OUT: 4.41
